Tested on: BHT-101 (Thyroid Gland Carcinoma)
Assay: combination Emax (second highest fraction inhibited in the dose matrix, 72 h); higher = more inhibition; extreme values may be limits of the assay
quantityMeasured: combination Emax

Please review the entries below; each comes with its answer.
{"compound": "COc1nnc2ccc(N3CCC(c4ccc(OCCN5CCN(C)C(=O)[C@H]5C)cc4)CC3)nn12 [AZD5153] + Cn1cnc2c(F)c(Nc3ccc(Br)cc3Cl)c(C(=O)NOCCO)cc21 [Selumetinib] (first compound max 1 µM, 7x7, partner max 10 µM)", "studyTarget": "BHT-101 (Thyroid Gland Carcinoma)", "reportedResult": 0.966}
{"compound": "Cc1nc(Nc2ncc(C(=O)Nc3c(C)cccc3Cl)s2)cc(N2CCN(CCO)CC2)n1 [Dasatinib] + CC(=O)Nc1cccc(-n2c(=O)n(C3CC3)c(=O)c3c(Nc4ccc(I)cc4F)n(C)c(=O)c(C)c32)c1 [Trametinib] (first compound max 2 µM, 7x7, partner max 1 µM)", "studyTarget": "BHT-101 (Thyroid Gland Carcinoma)", "reportedResult": 0.998}
{"compound": "C=CCn1c(=O)c2cnc(Nc3ccc(N4CCN(C)CC4)cc3)nc2n1-c1cccc(C(C)(C)O)n1 [AZD1775] + C1CN(CCC1(C(=O)N[C@@H](CCO)C2=CC=C(C=C2)Cl)N)C3=NC=NC4=C3C=CN4 [Capivasertib] (first compound max 3 µM, partner max 3 µM)", "studyTarget": "BHT-101 (Thyroid Gland Carcinoma)", "reportedResult": 0.631}

Next compound, please.
State combination Emax (BHT-101 (Thyroid Gland Carcinoma)) of COc1nnc2ccc(N3CCC(c4ccc(OCCN5CCN(C)C(=O)[C@H]5C)cc4)CC3)nn12 [AZD5153] + CCN(CCO)CCCOc1ccc2c(Nc3cc(CC(=O)Nc4cccc(F)c4)[nH]n3)ncnc2c1 [AZD2811] (first compound max 1 µM, 7x7, partner max 1 µM) .
0.7

###

System: NCI-H3118 (Head and Neck Carcinoma)
Assay: combination Emax (second highest fraction inhibited in the dose matrix, 72 h); higher = more inhibition; extreme values may be limits of the assay
quantityMeasured: combination Emax
I only need the number, thanks.

Dear colleague, please send me the reported combination Emax for CC(=O)c1c(C)c2cnc(Nc3ccc(N4CCNCC4)cn3)nc2n(C2CCCC2)c1=O [Palbociclib] + Cc1c2c(nn1C)CSCc1cc(n(C)n1)CSc1cc(c3ccccc3c1)OCCCc1c(C(=O)O)n(C)c3c-2c(Cl)ccc13 [AZD5991] (first compound max 10 µM, 7x7, partner max 1 µM) when you can.
0.426

Dear colleague, please send me the reported combination Emax for C=CCn1c(=O)c2cnc(Nc3ccc(N4CCN(C)CC4)cc3)nc2n1-c1cccc(C(C)(C)O)n1 [AZD1775] + Nc1ccn([C@@H]2O[C@H](CO)[C@@H](O)C2(F)F)c(=O)n1 [Gemcitabine] (first compound max 1 µM, partner max 0.3 µM) when you can.
0.872

###

System: IST-MEL1 (Melanoma)
Assay: combination Emax (second highest fraction inhibited in the dose matrix, 72 h); higher = more inhibition; extreme values may be limits of the assay
quantityMeasured: combination Emax
I only need the number, thanks.

{"compound": "CS(=O)(=O)CCNCc1ccc(-c2ccc3ncnc(Nc4ccc(OCc5cccc(F)c5)c(Cl)c4)c3c2)o1 [Lapatinib] + NC1(c2ccc(-c3nc4ccn5c(=O)[nH]nc5c4cc3-c3ccccc3)cc2)CCC1 [MK-2206] (first compound max 10 µM, 7x7, partner max 10 µM)", "studyTarget": "IST-MEL1 (Melanoma)", "combination Emax": 0.886}

Dear colleague, please send me the reported combination Emax for CN(CCO)CC[C@H](CSc1ccccc1)Nc1ccc(S(=O)(=O)NC(=O)c2ccc(N3CCC([C@@H](O)c4ccccc4-c4ccc(Cl)cc4)CC3)cc2)cc1S(=O)(=O)C(F)(F)F [AZD4320] + CN(C)CCCOc1ccc(-c2ccc3ncc4c(c3c2)n(C2CCOCC2)c(=O)n4C)cn1 [AZD0156] (first compound max 1 µM, 7x7, partner max 1 µM) when you can.
0.249

Dear colleague, please send me the reported combination Emax for CCN(CCO)CCCOc1ccc2c(Nc3cc(CC(=O)Nc4cccc(F)c4)[nH]n3)ncnc2c1 [AZD2811] + C=CCn1c(=O)c2cnc(Nc3ccc(N4CCN(C)CC4)cc3)nc2n1-c1cccc(C(C)(C)O)n1 [AZD1775] (first compound max 1 µM, partner max 1 µM) when you can.
0.504

Dear colleague, please send me the reported combination Emax for COc1cccc(OCCCN)c1-c1cc(Nc2cnc(C#N)cn2)n[nH]1 [Prexasertib] + CCc1c2c(nc3ccc(O)cc13)-c1cc3c(c(=O)n1C2)COC(=O)[C@]3(O)CC [SN-38] (first compound max 1 µM, 7x7, partner max 0.3 µM) when you can.
0.889

Dear colleague, please send me the reported combination Emax for CN(CCO)CC[C@H](CSc1ccccc1)Nc1ccc(S(=O)(=O)NC(=O)c2ccc(N3CCC([C@@H](O)c4ccccc4-c4ccc(Cl)cc4)CC3)cc2)cc1S(=O)(=O)C(F)(F)F [AZD4320] + C[C@@H]1COCCN1C2=NC(=NC(=C2)C3(CC3)[S@](=N)(=O)C)C4=C5C=CNC5=NC=C4 [AZD6738] (first compound max 1 µM, 7x7, partner max 10 µM) when you can.
0.941

Dear colleague, please send me the reported combination Emax for CN(CCO)CC[C@H](CSc1ccccc1)Nc1ccc(S(=O)(=O)NC(=O)c2ccc(N3CCC([C@@H](O)c4ccccc4-c4ccc(Cl)cc4)CC3)cc2)cc1S(=O)(=O)C(F)(F)F [AZD4320] + C1CN(CCC1(C(=O)N[C@@H](CCO)C2=CC=C(C=C2)Cl)N)C3=NC=NC4=C3C=CN4 [Capivasertib] (first compound max 1 µM, 7x7, partner max 3 µM) when you can.
0.26

Dear colleague, please send me the reported combination Emax for NC1(C(=O)N[C@@H](CCO)c2ccc(Cl)cc2)CCN(c2ncnc3[nH]ccc23)CC1 [Capivasertib] + Cn1cnc2c(F)c(Nc3ccc(Br)cc3Cl)c(C(=O)NOCCO)cc21 [Selumetinib] (first compound max 10 µM, 7x7, partner max 10 µM) when you can.
0.584

Dear colleague, please send me the reported combination Emax for Cc1c2c(nn1C)CSCc1cc(n(C)n1)CSc1cc(c3ccccc3c1)OCCCc1c(C(=O)O)n(C)c3c-2c(Cl)ccc13 [AZD5991] + C[C@@H](Nc1cc(F)cc(F)c1)c1cc(C(=O)N(C)C)cc2c(=O)cc(N3CCOCC3)oc12 [AZD8186] (first compound max 1 µM, 7x7, partner max 3 µM) when you can.
0.303

Where do the numbers come from? From the supplement of paper PMC11061612.
